Exercise: for every item that follows, state its recorded Kd.
- Assayed Target: T1, EsCas13d, nuclease-dead (Eubacterium siraeum, UniProt B0MS50, R295A;H300A;R849A;H854A)
- T1 sequence: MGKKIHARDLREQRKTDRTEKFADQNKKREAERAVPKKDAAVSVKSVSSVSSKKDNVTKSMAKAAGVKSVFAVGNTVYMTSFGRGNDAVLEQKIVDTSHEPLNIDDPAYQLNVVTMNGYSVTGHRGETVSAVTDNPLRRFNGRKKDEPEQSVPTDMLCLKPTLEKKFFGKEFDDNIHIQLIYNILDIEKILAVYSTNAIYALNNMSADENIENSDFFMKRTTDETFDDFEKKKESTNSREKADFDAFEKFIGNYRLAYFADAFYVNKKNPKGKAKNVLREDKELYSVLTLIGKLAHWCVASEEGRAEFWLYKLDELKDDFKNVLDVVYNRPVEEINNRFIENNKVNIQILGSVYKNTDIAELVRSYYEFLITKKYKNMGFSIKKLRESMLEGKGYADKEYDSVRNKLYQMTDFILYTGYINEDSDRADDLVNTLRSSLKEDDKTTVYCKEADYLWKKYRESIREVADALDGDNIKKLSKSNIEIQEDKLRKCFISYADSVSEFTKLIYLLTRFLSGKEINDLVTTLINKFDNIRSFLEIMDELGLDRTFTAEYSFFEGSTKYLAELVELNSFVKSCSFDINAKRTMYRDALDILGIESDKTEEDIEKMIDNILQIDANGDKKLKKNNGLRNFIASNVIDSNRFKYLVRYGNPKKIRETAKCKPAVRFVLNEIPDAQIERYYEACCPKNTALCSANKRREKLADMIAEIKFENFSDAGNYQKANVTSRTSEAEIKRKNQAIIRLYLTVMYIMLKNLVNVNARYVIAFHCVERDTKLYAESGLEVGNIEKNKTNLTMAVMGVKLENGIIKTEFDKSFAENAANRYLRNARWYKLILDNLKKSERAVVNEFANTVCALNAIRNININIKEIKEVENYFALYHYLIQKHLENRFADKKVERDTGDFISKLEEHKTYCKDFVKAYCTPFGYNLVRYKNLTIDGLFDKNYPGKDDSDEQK
- Assay Info: crRNA (strand 1, pre-loaded); Mg2+; 40 mM Tris-HCl pH 7.5, 150 mM NaCl, 6 mM MgCl2, 1 mM DTT, 0.1% Tween-20, 0.2 mg/ml BSA; 25 C; 10 min per concentration, then washed
- Experimental Setup: tags: His6-TwinStrep-SUMO cleaved; N-terminal SNAP kept (SNAP-Surface 488); label: 3' end held by stalled T7 RNA polymerase
Form entry: value (nM) — number only.

[in] Record request: Kd value, item target 1 U3G,G12U (mixed) RNA 1: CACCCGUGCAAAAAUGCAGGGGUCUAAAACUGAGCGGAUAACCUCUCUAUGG RNA 2: GGGAAUGGAUCCACAUCUACGAAUUCGUACCAUAGAGAGUUUAUCCGCGCACCGAGAUCGGAAGAGCACACGU
[out] 8.5

[in] Then this binder: target 1 insA 3' of 12,insU 3' of 7 (mixed) RNA 1: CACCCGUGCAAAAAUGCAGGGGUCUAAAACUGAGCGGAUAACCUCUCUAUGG RNA 2: GGGAAUGGAUCCACAUCUACGAAUUCGUACCAUAGAGAGGAUUAUCUCGCUCACCGAGAUCGGAAGAGCACACGU
[out] 42

[in] Then this binder: target 1 complement block 8-12 (mixed) RNA 1: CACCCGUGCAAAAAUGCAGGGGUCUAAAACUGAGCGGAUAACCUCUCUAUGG RNA 2: GGGAAUGGAUCCACAUCUACGAAUUCGUACCAUAGAGAGCAAUACCGCUCACCGAGAUCGGAAGAGCACACGU
[out] 12.7

[in] Then this binder: target 1 C6A,U11A (mixed) RNA 1: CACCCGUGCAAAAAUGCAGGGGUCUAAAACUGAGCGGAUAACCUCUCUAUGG RNA 2: GGGAAUGGAUCCACAUCUACGAAUUCGUACCAUAGAGAGGAUAUCAGCUCACCGAGAUCGGAAGAGCACACGU
[out] 28.1

[in] Then this binder: target 2 MT 5'PFS CAU 3'PFS UGU (mixed) RNA 1: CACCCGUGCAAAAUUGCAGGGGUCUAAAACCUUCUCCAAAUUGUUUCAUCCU RNA 2: GGGAAUGGAUCCACAUCUACGAAUUCCAUAGGAUGAAACAAUUUGGAGAAGUGUAGAUCGGAAGAGCACACGU
[out] 4.4

[in] Then this binder: target 1 insA 3' of 12,insG 3' of 6 (mixed) RNA 1: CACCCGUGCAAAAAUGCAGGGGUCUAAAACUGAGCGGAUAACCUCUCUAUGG RNA 2: GGGAAUGGAUCCACAUCUACGAAUUCGUACCAUAGAGAGGAUUAUCCGGCUCACCGAGAUCGGAAGAGCACACGU
[out] 28

[in] Then this binder: target 1 insU 3' of 12,insU 3' of 1 (mixed) RNA 1: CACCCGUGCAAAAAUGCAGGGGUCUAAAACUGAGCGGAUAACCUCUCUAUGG RNA 2: GGGAAUGGAUCCACAUCUACGAAUUCGUACCAUAGAGAGGUUUAUCCGCUCAUCCGAGAUCGGAAGAGCACACGU
[out] 8.23

[in] Then this binder: target 1 MT 5'PFS GCG 3'PFS AAC (mixed) RNA 1: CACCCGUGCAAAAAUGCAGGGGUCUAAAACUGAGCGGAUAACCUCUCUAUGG RNA 2: GGGAAUGGAUCCACAUCUACGAAUUCGCGCCAUAGAGAGGUUAUCCGCUCAAACAGAUCGGAAGAGCACACGU
[out] 32

[in] Then this binder: target 1 insC 3' of 17,insU 3' of 15 (mixed) RNA 1: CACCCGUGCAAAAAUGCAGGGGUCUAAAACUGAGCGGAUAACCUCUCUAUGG RNA 2: GGGAAUGGAUCCACAUCUACGAAUUCGUACCAUAGCAGUAGGUUAUCCGCUCACCGAGAUCGGAAGAGCACACGU
[out] 19.1

[in] Then this binder: target 2 MT 5'PFS GAC 3'PFS CUU (mixed) RNA 1: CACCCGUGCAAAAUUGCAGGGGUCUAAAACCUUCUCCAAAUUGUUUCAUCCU RNA 2: GGGAAUGGAUCCACAUCUACGAAUUCGACAGGAUGAAACAAUUUGGAGAAGCUUAGAUCGGAAGAGCACACGU
[out] 12.5

[in] Then this binder: target 2 MT 5'PFS GUA 3'PFS UGU (mixed) RNA 1: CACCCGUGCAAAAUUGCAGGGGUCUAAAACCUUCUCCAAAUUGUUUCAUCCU RNA 2: GGGAAUGGAUCCACAUCUACGAAUUCGUAAGGAUGAAACAAUUUGGAGAAGUGUAGAUCGGAAGAGCACACGU
[out] 15.2

[in] Then this binder: target 1 U10G,U11C (mixed) RNA 1: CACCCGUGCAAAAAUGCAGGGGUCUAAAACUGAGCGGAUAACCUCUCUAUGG RNA 2: GGGAAUGGAUCCACAUCUACGAAUUCGUACCAUAGAGAGGCGAUCCGCUCACCGAGAUCGGAAGAGCACACGU
[out] 14.1

[in] Then this binder: target 1 U8A,G13A (mixed) RNA 1: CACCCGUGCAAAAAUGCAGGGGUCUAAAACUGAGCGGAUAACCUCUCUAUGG RNA 2: GGGAAUGGAUCCACAUCUACGAAUUCGUACCAUAGAGAAGUUAACCGCUCACCGAGAUCGGAAGAGCACACGU
[out] 15

[in] Then this binder: target 3 insC 3' of 11,insA 3' of 2 (mixed) RNA 1: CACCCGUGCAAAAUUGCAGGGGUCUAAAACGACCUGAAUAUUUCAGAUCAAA RNA 2: GGGAAUGGAUCCACAUCUACGAAUUCGUUUUUGAUCUGAAACUAUUCAGGUACUGCAGAUCGGAAGAGCACACGU
[out] 45.5

[in] Then this binder: target 2 MT 5'PFS ACC 3'PFS CUC (mixed) RNA 1: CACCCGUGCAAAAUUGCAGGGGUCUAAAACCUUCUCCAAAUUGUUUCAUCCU RNA 2: GGGAAUGGAUCCACAUCUACGAAUUCACCAGGAUGAAACAAUUUGGAGAAGCUCAGAUCGGAAGAGCACACGU
[out] 7.4
